# ASSAY NOTES: viscosity readings of titanium dioxide dispersions, Table VI B
# Format: physicochemical
# CONDITION: Brookfield LVT-D @ 12 RPM, TiO2 50%, pass 1

# COMPOUND, UNITS, Viscosity reading of dispersion
rows = [
    ("CCCCCCCCCCCCCCCCOC(=O)CCCCCCCC=CCC(CCCCCC)OC(=O)c1ccccc1 (stereo not shown) [BCR, benzoic acid ester of cetyl-ricinoleate]", "cps", 1794),
    ("CCCCCCC(CC=CCCCCCCCC(=O)OCC(COC(=O)CCCCCCCC=CCC(CCCCCC)OC(=O)c1ccccc1)OC(=O)CCCCCCCC=CCC(CCCCCC)OC(=O)c1ccccc1)OC(=O)c1ccccc1 (stereo not shown)", "cps", 6552),
    ("CCCCCCC(CCCCCCCCCCC(=O)OCC(CC)CCCC)OC(=O)c1ccccc1 (stereo not shown)", "cps", 1170),
]
